# System: BT-549
# method.notes: NCI tumour cell line growth inhibition, 48 h
The source made the active and inactive calls. Cut-off read from the data, not from the text of the source: active = GI50 up to about 1.1 µM and inactive = higher.
experimental.endpoint: GI50

Please review the entries below; each comes with its answer.
Query: Bench note: what GI50 did C[C@]12CC/C(=N\O)C=C1CC[C@@H]1[C@@H]2CC[C@]2(C)C(=N/O)/C(=C/c3ccc([N+](=O)[O-])cc3)C[C@@H]12 show?
Response: 3.05 µM (inactive)

Query: Bench note: what GI50 did N#Cc1nc(C2CCC(=O)O2)oc1N (stereo not given) show?
Response: > 100 µM (inactive)

Continuing:
Query: Bench note: what GI50 did CCN(CC)c1ccc(/C=C2/C[N+](C)(C)C/C(=C/c3ccc(N(CC)CC)cc3)C2=O)cc1 show?
Response: 1.61 µM (inactive)

Query: Bench note: what GI50 did O=C(O)c1oc(C(=O)O)c(C(=O)O)c1C(=O)O show?
Response: > 100 µM (inactive)

Query: Bench note: what GI50 did S=C(S)N1CCN(c2ccccc2)CC1 show?
Response: > 100 µM (inactive)

Query: Bench note: what GI50 did CCOC(=O)c1ccc(C(=O)n2ccnc2)[nH]1 show?
Response: > 100 µM (inactive)

Query: Bench note: what GI50 did Cc1ccc(S(=O)(=O)NC(=O)NC(CCCCNC(=N)N)C(=O)O)cc1 (stereo not given) show?
Response: > 100 µM (inactive)

Query: Bench note: what GI50 did CC1=NN(c2cccc(Cl)c2)C2(C1)C(Cl)C(=O)N2c1nc2ccccc2s1 (stereo not given) show?
Response: 27.8 µM (inactive)

Query: Bench note: what GI50 did CCC1NC(=O)C1NC(=O)OC (stereo not given) show?
Response: > 100 µM (inactive)

Query: Bench note: what GI50 did COC(=O)/C1=C/C=C\C[C@@]2(C)CC(c3ccoc3)OC(=O)[C@@H]2CC[C@H]1C (stereo not given in full) show?
Response: > 25 µM (inactive)

----------
# System: COLO 205
# method.notes: NCI tumour cell line growth inhibition, 48 h
The source made the active and inactive calls. No stated cut-off is given here; in the data, active = GI50 up to about 1.1 µM and inactive = higher.
experimental.endpoint: GI50

Query: Bench note: what GI50 did COC(=O)C(CC(=O)Nc1ccc(Cl)c(Cl)c1)C(=O)C(=O)NC1C2CC3CC(C2)CC1C3 (stereo not given) show?
Response: > 100 µM (inactive)

Query: Bench note: what GI50 did O=C1C(=O)N(c2ccc(Cl)cc2)C(=O)/C(=N/c2cccc3c(=O)[nH][nH]c(=O)c23)C1c1nc2ccccc2o1 (stereo not given) show?
Response: > 100 µM (inactive)

Continuing:
Query: Bench note: what GI50 did CN(C)Cc1cc(Cl)c(O)c(CN(C)C)c1 show?
Response: > 100 µM (inactive)

Query: Bench note: what GI50 did CN(C)C(c1ccccc1)C1COC2Cc3ccccc3C1O2 (stereo not given) show?
Response: > 100 µM (inactive)

Query: Bench note: what GI50 did C/C=C/C1=C(Cl)C(=O)[C@@H](Cl)[C@@]1(O)C(=O)OC [(+)-CRYPTOSPORIPSIN] show?
Response: 1.5 µM (inactive)

Query: Bench note: what GI50 did S=P1(N2CCCCC2)Oc2ccc3ccccc3c2-c2c(ccc3ccccc23)O1 show?
Response: > 100 µM (inactive)

Query: Bench note: what GI50 did O=C1c2ccccc2C(=O)N1CC1(C(=O)O)NCCS1(=O)=O (stereo not given) show?
Response: > 100 µM (inactive)

Query: Bench note: what GI50 did CCN(CC)Cc1ccc(C(=S)Nc2ccc(C)cc2)s1 show?
Response: 16 µM (inactive)

Query: Bench note: what GI50 did CCCc1cc(=O)oc2c3c(c4c(c12)OC(C)(C)CC4)O[C@@H](C)[C@H](C)[C@H]3O show?
Response: 12.6 µM (inactive)

Query: Bench note: what GI50 did CC1(c2nc3ccccc3[nH]2)CCC(C#N)C(C)(C)O1 (stereo not given) show?
Response: > 100 µM (inactive)
